Assay: small-molecule microarray binders of probe aLefty2, primary screen, biochemical, biotinylated probe, 635/667 nm fluorescence (AID 1094);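 note: score merges spot fluorescence near 667 nm with spot signal-to-noise ratio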
Conditions: higher = more signal
Assignment: determine reported composite z-score for the given compounds.
Give bare numbers.

[[record]]
item_smiles = "CCOC(=O)NN=C1C[C@@H](O)[C@@H](O)[C@@H]2[C@@H]3C(=O)N(C4CCCCC4)C(=O)[C@@H]3CC[C@@H]12"
observed_result = -0.028

[[record]]
item_smiles = "CCOC(=O)CCN1C(=O)[C@H]2[C@H]3[C@H](O)[C@H](O)CC(=O)[C@H]3CC[C@H]2C1=O"
observed_result = -0.225

[[record]]
item_smiles = "Cn1c(=O)n2n(c1=O)[C@H]1[C@H](O)[C@@H]3O[C@@H]3C(=NOC[C@@H](O)COCc3ccco3)[C@H]1CC2"
observed_result = -0.171

[[record]]
item_smiles = "C[C@H](c1ccccc1)N1C(=O)[C@H]2[C@H]3[C@H](O)[C@H](O)CC(=O)[C@@H]3CC[C@H]2C1=O"
observed_result = -0.226

[[record]]
item_smiles = "CC(C)C[C@@H]1NC(=O)[C@H]2C[C@@H](C(=O)O)[C@@H](c3ccc(O)cc3)N2C1=O"
observed_result = 0.449

[[record]]
item_smiles = "CO[C@H]([C@@H](C)[C@H](OC)c1ccccc1)[C@H](C)[C@@H](OC)[C@H](C)C(C)=O"
observed_result = -0.0159


Consider the additional compound presented here.
Q: Please supply the value of reported composite z-score for the item Cc1cc(C)c(-c2cc([C@H](C)ON=C3[C@H]4CCn5c(=O)n(-c6ccccc6)c(=O)n5[C@H]4[C@H](O)[C@@H]4O[C@H]34)on2)c(C)c1
Ans: -0.133
